Measured Target: Mitogen-activated protein kinase 14 (Homo sapiens, UniProt Q16539)
Sequence (Q16539 whole entry): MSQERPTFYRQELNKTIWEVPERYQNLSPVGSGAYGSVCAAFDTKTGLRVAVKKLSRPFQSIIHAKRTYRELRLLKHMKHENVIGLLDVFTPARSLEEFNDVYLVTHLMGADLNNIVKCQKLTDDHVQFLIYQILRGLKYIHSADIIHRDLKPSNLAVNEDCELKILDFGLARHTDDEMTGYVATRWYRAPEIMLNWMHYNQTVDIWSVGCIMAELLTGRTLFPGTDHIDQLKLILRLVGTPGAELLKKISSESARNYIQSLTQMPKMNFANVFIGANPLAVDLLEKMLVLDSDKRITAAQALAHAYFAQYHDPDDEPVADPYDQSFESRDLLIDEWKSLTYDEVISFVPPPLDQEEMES
Protocol Text: Fluorescence-Based Competition Assay
Test Context: pH 7
Value Type: IC50 (µM)
Hi! Could you send only the number? It should be in µM, unit omitted.

So for `C=C1SN(C)c2ccc(S(=O)(=O)Nc3ccccc3N3CCCCC3)cc21` , the logged IC50 turned out to be 5.61

* * *

Measured Target: Mitogen-activated protein kinase 14 (Homo sapiens, UniProt Q16539)
Protocol Text: Kinase Activity Assay
Test Context: pH 7
Value Type: pKd
The scale used: pKd is minus the common logarithm of the concentration in molar units.

So for `C=C1SN(C)c2ccc(S(=O)(=O)Nc3ccccc3N3CCCCC3)cc21` , the logged pKd turned out to be 6.12

The reported measurements were obtained from BindingDB's records for doi:10.1021/cb700025j.
